Data provenance is paper PMC7004355.

Substrate: NC(=O)OP(=O)(O)O
procedure-text: purified protein
Format: biochemical, Escherichia coli
condition-set: 50 mM Tris pH 8.5, 20 °C, 20 mM NaCl, ornithine 3 mM
Short version: Km at least 300 µM is MET, less is NOT MET.

# example entries with known answers
{"protein": "Escherichia coli ornithine transcarbamoylase (OTC) variant D231A, His-tagged (enzyme, E. coli, Anabolic ornithine transcarbamoylase of E. coli, argI gene, 333-residue subunit; Made by site-directed mutagenesis of the ASKA pCA24N plasmid; 6x-His tag not cleaved; source: E. coli BL21 (DE3) Tuner, purified (HisTrap FF, Superdex 200 SEC)) SGFYHKHFLKLLDFTPAELNSLLQLAAKLKADKKSGKEEAKLTGKNIALIFEKDSTRTRCSFEVAAYDQGARVTYLGPSGSQIGHKESIKDTARVLGRMYDGIQYRGYGQEIVETLAEYASVPVWNGLTNEFHPTQLLADLLTMQEHLPGKAFNEMTLVYAGDARNNMGNSMLEAAALTGLDLRLVAPQACWPEAALVTECRALAQQNGGNITLTEDVAKGVEGADFIYTAVWVSMGEAKEKWAERIALLREYQVNSKMMQLTGNPEVKFLHCLPAFHDDQTTLGKKMAEEFGLHGGMEVTDEVFESAASIVFDQAENRMHTIKAVMVATLSK", "assigned-class": "NOT MET"}
{"protein": "Escherichia coli ornithine transcarbamoylase (OTC), wild type, His-tagged (enzyme, E. coli, Anabolic ornithine transcarbamoylase of E. coli, argI gene, 333-residue subunit; Expressed from the ASKA plasmid pCA24N; also called WT OTC; anabolic OTC; source: E. coli BL21 (DE3) Tuner, purified (HisTrap FF, Superdex 200 SEC)) SGFYHKHFLKLLDFTPAELNSLLQLAAKLKADKKSGKEEAKLTGKNIALIFEKDSTRTRCSFEVAAYDQGARVTYLGPSGSQIGHKESIKDTARVLGRMYDGIQYRGYGQEIVETLAEYASVPVWNGLTNEFHPTQLLADLLTMQEHLPGKAFNEMTLVYAGDARNNMGNSMLEAAALTGLDLRLVAPQACWPEAALVTECRALAQQNGGNITLTEDVAKGVEGADFIYTDVWVSMGEAKEKWAERIALLREYQVNSKMMQLTGNPEVKFLHCLPAFHDDQTTLGKKMAEEFGLHGGMEVTDEVFESAASIVFDQAENRMHTIKAVMVATLSK", "assigned-class": "NOT MET"}
{"protein": "OTC (E. coli ornithine transcarbamoylase, argI) (Escherichia coli K-12; R58A) (protein, full length, uncleaved 6xHis tag, pCA24N ASKA clone, expressed in BL21(DE3) Tuner; homotrimer of 333-residue subunits) SGFYHKHFLKLLDFTPAELNSLLQLAAKLKADKKSGKEEAKLTGKNIALIFEKDSTATRCSFEVAAYDQGARVTYLGPSGSQIGHKESIKDTARVLGRMYDGIQYRGYGQEIVETLAEYASVPVWNGLTNEFHPTQLLADLLTMQEHLPGKAFNEMTLVYAGDARNNMGNSMLEAAALTGLDLRLVAPQACWPEAALVTECRALAQQNGGNITLTEDVAKGVEGADFIYTDVWVSMGEAKEKWAERIALLREYQVNSKMMQLTGNPEVKFLHCLPAFHDDQTTLGKKMAEEFGLHGGMEVTDEVFESAASIVFDQAENRMHTIKAVMVATLSK", "assigned-class": "NOT MET"}
{"protein": "OTC (E. coli ornithine transcarbamoylase, argI) (Escherichia coli K-12; E300Q) (protein, full length, uncleaved 6xHis tag, pCA24N ASKA clone, expressed in BL21(DE3) Tuner; homotrimer of 333-residue subunits) SGFYHKHFLKLLDFTPAELNSLLQLAAKLKADKKSGKEEAKLTGKNIALIFEKDSTRTRCSFEVAAYDQGARVTYLGPSGSQIGHKESIKDTARVLGRMYDGIQYRGYGQEIVETLAEYASVPVWNGLTNEFHPTQLLADLLTMQEHLPGKAFNEMTLVYAGDARNNMGNSMLEAAALTGLDLRLVAPQACWPEAALVTECRALAQQNGGNITLTEDVAKGVEGADFIYTDVWVSMGEAKEKWAERIALLREYQVNSKMMQLTGNPEVKFLHCLPAFHDDQTTLGKKMAEEFGLHGGMQVTDEVFESAASIVFDQAENRMHTIKAVMVATLSK", "assigned-class": "MET"}

stdin: Reported Km reaches at least 300 µM for OTC (E. coli ornithine transcarbamoylase, argI) (Escherichia coli K-12; H273L) (protein, full length, uncleaved 6xHis tag, pCA24N ASKA clone, expressed in BL21(DE3) Tuner; homotrimer of 333-residue subunits) SGFYHKHFLKLLDFTPAELNSLLQLAAKLKADKKSGKEEAKLTGKNIALIFEKDSTRTRCSFEVAAYDQGARVTYLGPSGSQIGHKESIKDTARVLGRMYDGIQYRGYGQEIVETLAEYASVPVWNGLTNEFHPTQLLADLLTMQEHLPGKAFNEMTLVYAGDARNNMGNSMLEAAALTGLDLRLVAPQACWPEAALVTECRALAQQNGGNITLTEDVAKGVEGADFIYTDVWVSMGEAKEKWAERIALLREYQVNSKMMQLTGNPEVKFLLCLPAFHDDQTTLGKKMAEEFGLHGGMEVTDEVFESAASIVFDQAENRMHTIKAVMVATLSK ?
stdout: MET
